assay_target: HDAC2 (Homo sapiens)
Construct: purchased Enzo Life Sciences
experimental_details: HDAC Inhibition Screening Assay (FLUOR DE LYS Fluorimetric Drug Discovery Kit), HDAC2
Format: biochemical
experimental_context: 2 μM compound
measured_parameter: inhibition at 2 µM

molecule	assay_target	inhibition at 2 µM
COc1ccc(C(=O)NC2CCc3cc(/C=C/C(=O)NO)ccc32)cc1 (stereo not shown) [Compound 25]	HDAC2 (Homo sapiens)	> 80%
O=C(CCCCC(=O)N1CCN(C(=O)c2ccc3c(c2)CC/C(=C\c2cc(C(F)(F)F)cc(C(F)(F)F)c2)C3=O)CC1)NO [Compound 83]	HDAC2 (Homo sapiens)	< 50%
Cc1[nH]c2ccccc2c1CCNC1CCc2cc(/C=C/C(=O)Nc3ccc(F)cc3N)ccc21 (stereo not shown) [Compound 59]	HDAC2 (Homo sapiens)	> 80%

# context switch: different molecule, same inhibition at 2 µM
## Task Can you look up the measured inhibition at 2 µM of CCN(CC)c1ccc(C(=O)NC2CCc3cc(/C=C/C(=O)NCCCCCC(=O)Nc4ccc(F)cc4N)ccc32)cc1 (stereo not shown) [Compound 29] for me?
## Result < 50%

###

Would you kindly list inhibition at 10 µM for each of these molecules?
assay_target: HDAC3 (Homo sapiens)
Construct: purchased Enzo Life Sciences
Sequence (O15379 whole entry): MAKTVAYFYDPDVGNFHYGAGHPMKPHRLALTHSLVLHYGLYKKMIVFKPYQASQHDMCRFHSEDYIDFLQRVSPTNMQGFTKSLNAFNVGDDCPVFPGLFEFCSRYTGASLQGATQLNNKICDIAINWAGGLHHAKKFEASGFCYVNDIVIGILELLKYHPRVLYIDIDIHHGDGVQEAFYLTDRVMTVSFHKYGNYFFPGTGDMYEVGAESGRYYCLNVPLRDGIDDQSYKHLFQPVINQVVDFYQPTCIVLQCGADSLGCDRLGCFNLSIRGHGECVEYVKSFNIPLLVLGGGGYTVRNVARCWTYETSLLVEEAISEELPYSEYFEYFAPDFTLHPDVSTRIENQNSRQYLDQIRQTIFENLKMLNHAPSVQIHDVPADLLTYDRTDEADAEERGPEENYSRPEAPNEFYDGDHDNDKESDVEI
Sequence (O75376 395-489 partner limits assumed): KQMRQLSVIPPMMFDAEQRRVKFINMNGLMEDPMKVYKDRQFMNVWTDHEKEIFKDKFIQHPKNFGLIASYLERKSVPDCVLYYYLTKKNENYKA
experimental_details: HDAC Inhibition Screening Assay (FLUOR DE LYS Fluorimetric Drug Discovery Kit), HDAC3
Format: biochemical
experimental_context: 10 μM compound

molecule	measured_parameter	observed_value
CCN(CC)c1ccc(C(=O)NC2CCc3cc(/C=C/C(=O)Nc4ccc(F)cc4N)ccc32)cc1 (stereo not shown)	inhibition at 10 µM	< 50%
O=C(CCCCCNC(=O)COc1ccc2c(c1)CC/C(=C\c1cc(C(F)(F)F)cc(C(F)(F)F)c1)C2=O)NO	inhibition at 10 µM	> 80%
O=C(/C=C/c1ccc2c(c1)CCCC2NCCc1c[nH]c2ccccc12)NO (stereo not shown)	inhibition at 10 µM	> 80%
Nc1cc(F)ccc1NC(=O)CCCCCCC(=O)Nc1ccc2c(c1)CCC(Cc1cc(C(F)(F)F)cc(C(F)(F)F)c1)C2=O (stereo not shown)	inhibition at 10 µM	< 50%
COc1ccc(C(=O)NC2CCc3cc(/C=C/C(=O)NO)ccc32)cc1 (stereo not shown)	inhibition at 10 µM	> 80%

// each molecule listed below needs its inhibition at 10 µM
1. O=C(/C=C/c1ccc2c(c1)CCC2NCc1cc(C(F)(F)F)cc(C(F)(F)F)c1)NO (stereo not shown)
2. COc1ccc2c(c1)CCC2NC(=O)CCCCCCC(=O)Nc1ccc(F)cc1N (stereo not shown)
3. COc1ccc2c(c1)CCC2NC(=O)CCCCCCC(=O)NO (stereo not shown)
4. Nc1cc(F)ccc1NC(=O)/C=C/c1ccc2c(c1)CCC2NC(=O)c1cc(C(F)(F)F)cc(C(F)(F)F)c1 (stereo not shown)

## Result
> 80%
50 to 80%
> 80%
< 50%

###

assay_target: HDAC1 (Homo sapiens, UniProt Q13547)
Construct: purchased Enzo Life Sciences
Sequence (Q13547 whole entry): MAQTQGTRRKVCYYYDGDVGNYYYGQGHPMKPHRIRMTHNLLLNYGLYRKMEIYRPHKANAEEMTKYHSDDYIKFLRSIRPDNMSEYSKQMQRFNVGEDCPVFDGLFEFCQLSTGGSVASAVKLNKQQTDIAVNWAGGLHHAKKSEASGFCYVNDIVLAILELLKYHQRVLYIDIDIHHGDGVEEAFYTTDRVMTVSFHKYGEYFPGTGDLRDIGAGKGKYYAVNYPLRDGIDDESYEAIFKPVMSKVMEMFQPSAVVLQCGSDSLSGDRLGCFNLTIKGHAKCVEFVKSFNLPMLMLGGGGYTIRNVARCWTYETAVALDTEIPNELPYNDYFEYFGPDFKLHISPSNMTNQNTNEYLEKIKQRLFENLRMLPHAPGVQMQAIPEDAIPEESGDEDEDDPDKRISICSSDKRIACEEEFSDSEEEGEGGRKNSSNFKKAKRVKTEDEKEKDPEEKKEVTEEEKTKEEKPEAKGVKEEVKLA
experimental_details: HDAC Inhibition Screening Assay (FLUOR DE LYS Fluorimetric Drug Discovery Kit), HDAC1
Format: biochemical
experimental_context: 2 μM compound
measured_parameter: inhibition at 2 µM

See these solved cases before continuing.
compound	measured_parameter	observed_value
O=C(CCCCCCC(=O)NC1CCc2cc(Br)ccc21)NO (stereo not shown) [Compound 40]	inhibition at 2 µM	50 to 80%
O=C(/C=C/c1ccc2c(c1)CCC2NC(=O)OCc1cc(C(F)(F)F)cc(C(F)(F)F)c1)NO (stereo not shown) [Compound 15]	inhibition at 2 µM	< 50%
Nc1cc(F)ccc1NC(=O)/C=C/c1ccc2c(c1)CCCC2OCc1cc(C(F)(F)F)cc(C(F)(F)F)c1 (stereo not shown) [Compound 35]	inhibition at 2 µM	< 50%
O=C(CCCCCCC(=O)Nc1ccc2c(c1)CC/C(=C\c1cc(C(F)(F)F)cc(C(F)(F)F)c1)C2=O)NO [Compound 4]	inhibition at 2 µM	50 to 80%
O=C(CCCCC(=O)N1CCN(C(=O)c2ccc3c(c2)CC/C(=C\c2cc(C(F)(F)F)cc(C(F)(F)F)c2)C3=O)CC1)NO [Compound 83]	inhibition at 2 µM	< 50%

Parameters: items (list). Returns: inhibition at 2 µM for each item.
1. O=C(NO)c1ccc(COc2ccc3c(c2)CCC(Cc2cc(C(F)(F)F)cc(C(F)(F)F)c2)C3=O)cc1 (stereo not shown) [Compound 68]
2. COc1ccc(N2C(=O)CN(C3CCc4cc(/C=C/C(=O)NO)ccc43)C2=O)cc1 (stereo not shown) [Compound 38]

## Result
1: < 50%; 2: > 80%

###

assay_target: ATX (autotaxin) (Homo sapiens, UniProt Q13822)
Construct: purchased Cayman 10803
experimental_details: Autotaxin Inhibition Screening Assay (choline release from LPC, LPC-CR)
Format: biochemical
experimental_context: 50 μM compound
Would you mind telling me the reported inhibition at 50 µM of each entry?

compound	observed_value
Nc1cc(F)ccc1NC(=O)CCCCCCC(=O)NC1CCc2cc(Br)ccc21 (stereo not shown)	< 50%
O=C(/C=C/c1ccc2c(c1)CCC2NCCc1cc(C(F)(F)F)cc(C(F)(F)F)c1)NO (stereo not shown)	< 50%
COc1ccc(CCNC2CCc3cc(/C=C/C(=O)Nc4ccc(F)cc4N)ccc32)cc1 (stereo not shown)	< 50%
O=C(/C=C/c1ccc2c(c1)CCC2NCc1cc(C(F)(F)F)cc(C(F)(F)F)c1)NO (stereo not shown)	< 50%
COc1ccc2c(c1)CCCC2NC(=O)CCCCCCC(=O)Nc1ccc(F)cc1N (stereo not shown)	< 50%

Look up inhibition at 50 µM for the entries below, preserving their order.
1. Cc1ccc(S(=O)(=O)NC2CCc3cc(/C=C/C(=O)NO)ccc32)cc1 (stereo not shown)
2. Nc1cc(F)ccc1NC(=O)CCCCC(=O)N1CCN(C(=O)c2ccc3c(c2)CC/C(=C\c2cc(C(F)(F)F)cc(C(F)(F)F)c2)C3=O)CC1
3. O=C(NO)c1ccc(COc2ccc3c(c2)CCC(Cc2cc(C(F)(F)F)cc(C(F)(F)F)c2)C3=O)cc1 (stereo not shown)
4. Nc1cc(F)ccc1NC(=O)CCCCCCC(=O)NC1CCc2cc(/C=C/C(=O)Nc3cc(Cl)cc(Cl)c3)ccc21 (stereo not shown)
5. Nc1cc(F)ccc1NC(=O)CCCCCC(=O)Nc1ccc2c(c1)CC/C(=C\c1cc(C(F)(F)F)cc(C(F)(F)F)c1)C2=O

## Result
< 50%
> 80%
< 50%
< 50%
> 80%

Value sought for every listed compound: inhibition at 50 µM.
1. O=C(/C=C/c1ccc2c(c1)CCCC2NCCc1c[nH]c2ccccc12)NO (stereo not shown)
2. O=C(/C=C/c1ccc2c(c1)CCC2OCc1cc(C(F)(F)F)cc(C(F)(F)F)c1)NO (stereo not shown)
3. O=C(CCCCCCC(=O)NC1CCCc2cc(Br)ccc21)NO (stereo not shown)
4. O=C(CCCCCN(CC(=O)NC1CCc2ccccc21)CC(=O)NC1CCc2ccccc21)NO (stereo not shown)
5. O=C(CCCCCNC(=O)COc1ccc2c(c1)CC/C(=C\c1cc(C(F)(F)F)cc(C(F)(F)F)c1)C2=O)NO

## Result
1: < 50%; 2: < 50%; 3: < 50%; 4: < 50%; 5: > 80%

## Task Which inhibition at 50 µM value belongs to O=C(/C=C/c1ccc2c(c1)CCC2NCCc1c[nH]c2ccccc12)NO (stereo not shown) ?
## Result 50 to 80%

###

Hi there, I'd appreciate the recorded inhibition at 10 µM for every entry that follows.
assay_target: HDAC2 (Homo sapiens, UniProt Q92769)
Construct: purchased Enzo Life Sciences
Sequence (Q92769 whole entry): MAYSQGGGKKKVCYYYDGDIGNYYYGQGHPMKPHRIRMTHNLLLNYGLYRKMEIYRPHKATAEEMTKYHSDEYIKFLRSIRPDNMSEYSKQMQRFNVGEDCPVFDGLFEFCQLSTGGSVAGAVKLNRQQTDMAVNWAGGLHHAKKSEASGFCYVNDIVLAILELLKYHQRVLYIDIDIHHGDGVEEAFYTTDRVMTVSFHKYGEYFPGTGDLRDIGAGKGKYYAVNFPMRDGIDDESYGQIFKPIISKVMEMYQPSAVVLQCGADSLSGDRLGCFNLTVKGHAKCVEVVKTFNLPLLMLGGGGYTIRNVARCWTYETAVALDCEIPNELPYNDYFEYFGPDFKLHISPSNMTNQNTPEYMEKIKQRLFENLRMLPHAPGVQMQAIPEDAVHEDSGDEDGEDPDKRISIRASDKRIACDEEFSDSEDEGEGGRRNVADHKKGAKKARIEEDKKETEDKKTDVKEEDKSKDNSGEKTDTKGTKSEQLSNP
experimental_details: HDAC Inhibition Screening Assay (FLUOR DE LYS Fluorimetric Drug Discovery Kit), HDAC2
Assay type: biochemical
experimental_context: 10 μM compound

// worked examples, inhibition at 10 µM included
compound	assay_target	inhibition at 10 µM
O=C(/C=C/c1ccc2c(c1)CCCC2NC(=O)c1cc(C(F)(F)F)cc(C(F)(F)F)c1)NO (stereo not drawn)	HDAC2 (Homo sapiens, UniProt Q92769)	< 50%
CN(C)c1ccc(C(=O)NC2CCc3cc(/C=C/C(=O)NO)ccc32)cc1 (stereo not drawn)	HDAC2 (Homo sapiens, UniProt Q92769)	> 80%

Next item in the queue.
## Task Which inhibition at 10 µM is reported for this compound? COc1ccc2c(c1)CCC2NC(=O)CCCCCCC(=O)NO (stereo not drawn)
## Result > 80%

###

Hi there, I'd appreciate the recorded inhibition at 10 µM for every entry that follows.
assay_target: HDAC1 (Homo sapiens)
Construct: purchased Enzo Life Sciences
experimental_details: HDAC Inhibition Screening Assay (FLUOR DE LYS Fluorimetric Drug Discovery Kit), HDAC1
Assay type: biochemical
experimental_context: 10 μM compound

As a guide, the following entries are already answered.
compound	observed_value
O=C(CCCCCN(CC(=O)NC1CCc2ccccc21)CC(=O)NC1CCc2ccccc21)NO (stereo not shown)	> 80%
Nc1cc(F)ccc1NC(=O)/C=C/c1ccc2c(c1)CCC2NCCc1c[nH]c2ccccc12 (stereo not shown)	50 to 80%
Nc1cc(F)ccc1NC(=O)CCCCCC(=O)Nc1ccc2c(c1)CC/C(=C\c1cc(C(F)(F)F)cc(C(F)(F)F)c1)C2=O	< 50%

Count: 2. Required value per item: inhibition at 10 µM.
1. O=C(/C=C/c1ccc2c(c1)CCC2NCCc1ccc(F)cc1)NO (stereo not shown)
2. CN(C)c1ccc(CCNC2CCc3cc(/C=C/C(=O)NO)ccc32)cc1 (stereo not shown)

## Result
1. > 80%
2. > 80%

For each of the compounds below, note its inhibition at 10 µM.
1. Nc1cc(F)ccc1NC(=O)/C=C/c1ccc2c(c1)CC/C(=C\c1cc(C(F)(F)F)cc(C(F)(F)F)c1)C2=O
2. Nc1cc(F)ccc1NC(=O)/C=C/c1ccc2c(c1)CCC2NCCC(=O)Nc1cc(C(F)(F)F)cc(C(F)(F)F)c1 (stereo not shown)
3. Nc1cc(F)ccc1NC(=O)/C=C/c1ccc2c(c1)CCC2NS(=O)(=O)c1cc(C(F)(F)F)cc(C(F)(F)F)c1 (stereo not shown)
4. O=C(/C=C/c1ccc(COc2ccc3c(c2)CCCC3=O)cc1)NO

## Result
1: < 50%; 2: < 50%; 3: < 50%; 4: > 80%

Could I get inhibition at 10 µM for every one of these entries?
1. O=C(CCCCCCC(=O)Nc1ccc2c(c1)CC/C(=C\c1cc(C(F)(F)F)cc(C(F)(F)F)c1)C2=O)NO
2. Nc1cc(F)ccc1NC(=O)/C=C/c1ccc2c(c1)CCC2NC(=O)c1cc(C(F)(F)F)cc(C(F)(F)F)c1 (stereo not shown)
3. Nc1cc(F)ccc1NC(=O)/C=C/c1ccc(COc2ccc3c(c2)CCCC3=O)cc1
4. O=C(/C=C/c1ccc2c(c1)CCCC2OCc1cc(C(F)(F)F)cc(C(F)(F)F)c1)NO (stereo not shown)
5. COc1ccc(N2C(=O)CN(C3CCc4cc(/C=C/C(=O)NO)ccc43)C2=O)cc1 (stereo not shown)
6. COc1ccc(CCNC2CCc3cc(/C=C/C(=O)Nc4ccc(F)cc4N)ccc32)cc1 (stereo not shown)
7. O=C(NO)c1ccc(COc2ccc3c(c2)CC(Cc2cc(C(F)(F)F)cc(C(F)(F)F)c2)C3=O)cc1 (stereo not shown)
8. O=C(CCCCCCC(=O)Nc1ccc2c(c1)CCCC2O)NO (stereo not shown)

## Result
1. > 80%
2. < 50%
3. < 50%
4. > 80%
5. > 80%
6. 50 to 80%
7. < 50%
8. > 80%

Just for reference, patent US12162820B2 is where these values come from.
